Hello, the source for this data is paper PMC12655351, in case you need it.

tested on: Ovarian cancer; details: Ovarian cancer subpanel
measurement-type: MG_MID TGI (µM)
Give just the number in µM; leave the unit off.

Fill in: MG_MID TGI of O=C(O)CCCN1C(=O)/C(=C/C=C/c2ccc([N+](=O)[O-])o2)SC1=S [13b] is ___
2.99

Another: O=C(O)CCN1C(=O)/C(=C/C=C/c2ccc([N+](=O)[O-])o2)SC1=S [12b]
5.84

Another: CC(C)C(C(=O)O)N1C(=O)/C(=C/C=C/c2ccc([N+](=O)[O-])o2)SC1=S (stereo not shown)
5.19

Another: CCCC(C(=O)O)N1C(=O)/C(=C/C=C/c2ccc([N+](=O)[O-])o2)SC1=S (stereo not shown)
8.71

Another: O=C(O)C(c1ccccc1)N1C(=O)/C(=C/C=C/c2ccc([N+](=O)[O-])o2)SC1=S (stereo not shown)
27.9

Further cases:
Fill in: MG_MID TGI of CCCCC(C(=O)O)N1C(=O)/C(=C/C=C/c2ccc([N+](=O)[O-])o2)SC1=S (stereo not shown) is ___
9.10

Another: O=C(O)CCCCCN1C(=O)/C(=C/C=C/c2ccc([N+](=O)[O-])o2)SC1=S [14b]
2.92
